# test-protocol: viability loss with induced miR-34 in A549 – imaging, A549 dox-inducible miR-34, nuclei and caspase counts, primary screen (AID 1347080)
# condition-details: A549 miR-34 inducible, Hoechst nuclei count, 48 h; stronger effect = lower value; cell number ratio, induced over uninduced
measured-property: fold change

- NC(=O)c1c(NC(=O)C2CC2)sc2c1CCCC2: 0.825
- CCOC(=O)O[C@]1(C(=O)COC(=O)CC)CC[C@H]2[C@@H]3CCC4=CC(=O)C=C[C@]4(C)[C@H]3[C@@H](O)C[C@@]21C: 0.839
- CCC(Nc1ncnc2nc[nH]c12)c1nc2cccc(F)c2c(=O)n1-c1ccccc1 (stereo not given): 0.873
- O=C(O)c1cc(I)ccc1NC(=O)C(Cc1ccccc1)NCc1ccccc1 (stereo not given): 0.835
- O=C(C=Cc1ccc2ccccc2n1)c1ccncc1: 0.681
- C[C@H](Cn1cnc2c(N)ncnc21)OCP(=O)(O)O: 0.942
- O=CC(O)C(O)C(O)C(O)CO (stereo not given): 0.892
- O=C(C=Cc1ccccc1)NC(NC(=S)Nc1cccc2cccnc12)C(Cl)(Cl)Cl (stereo not given): 0.979
- CC(C)CN(CC(O)C(Cc1ccccc1)NC(=O)OC1CCOC1)S(=O)(=O)c1ccc(N)cc1 (stereo not given): 0.88
- CCOC(=O)C(N)Cc1ccc(-c2cc(OC(c3ccc(Cl)cc3-n3ccc(C)n3)C(F)(F)F)nc(N)n2)cc1 (stereo not given): 0.982

----------
# test-protocol: viability loss with induced miR-34 in A549 – imaging, A549 dox-inducible miR-34, nuclei and caspase counts, primary screen (AID 1347080)
# condition-details: A549 miR-34 inducible, Hoechst nuclei count, 48 h; measured here: total cells without miR-34 induction
measured-property: cell count

* CC[n+]1c(/C=C/C=C2/N(C)c3ccccc3C2(C)C)sc2ccccc21 | 1080
* O=C(O)CCCCc1ccccc1 | 9830
* CC(Oc1cc(-n2cnc3ccc(CN4CCN(C)CC4)cc32)sc1C(N)=O)c1ccccc1C(F)(F)F (configuration not stated) | 1080
* Cn1cc(-c2[nH]c3cc(NC(=O)C(N)C4CCCCC4)cc4c3c2C=NNC4=O)cn1 (configuration not stated) | 2100
* Oc1ccc(OC2CCCCO2)cc1 (configuration not stated) | 8020
* C[N+]1(C)[C@@H]2CC(OC(=O)C(O)(c3cccs3)c3cccs3)C[C@H]1C1OC12 (some centres not stated) | 9960
* CCOC(=O)C(CCc1ccccc1)NC1CSC(c2cccs2)CN(CC(=O)O)C1=O (configuration not stated) | 7900
* COc1ccc2c(c1)CCC1C2CC[C@@]2(C)C1CC[C@@H]2NCCCCCCN1C(=O)CCC1=O (some centres not stated) | 7440
* CC[C@]1(O)C[C@H]2CN(CCc3c([nH]c4ccccc34)[C@@](C(=O)OC)(c3cc4c(cc3OC)N(C)[C@H]3[C@@](O)(C(N)=O)[C@H](O)[C@]5(CC)C=CCN6CC[C@]43[C@@H]65)C2)C1 | 1780
* CC12C=CC(=O)C=C1CCC1C2=CCC2(C)C1CC[C@@H]2C(=O)CN1CCN(c2cc(N3CCCC3)nc(N3CCCC3)n2)CC1 (some centres not stated) | 4470
* CC(=O)SC1CC2=CC(=O)CC[C@]2(C)C2CC[C@@]3(C)C(CC[C@@]34CCC(=O)O4)C12 (some centres not stated) | 7280
* CCCCC/C=C\CC(O)/C=C/c1cccc(CC(O)CCCCO)n1 (configuration not stated) | 5760
* Cc1onc(-c2c(Cl)cccc2Cl)c1C(=O)NC1C(=O)N2C1SC(C)(C)C2C(=O)O (configuration not stated) | 9780
* Cc1cc(C#N)cc(C)c1Oc1nc(Nc2ccc(C#N)cc2)nc(N)c1Br | 4600
* Oc1cc(O)c2c(c1)OC(c1ccc(O)c(O)c1)C(O)C2 (configuration not stated) | 10500
* CCN=C1N[C@@H]2C(O)C(O)C(CO)O[C@@H]2S1 (some centres not stated) | 9320
* Cc1nsc(NC(=O)NCc2ccccc2-n2ccnc2C)n1 | 10400
* O=[N+]([O-])c1ccc(CNc2nc(NCc3cccc(C(F)(F)F)c3)nc3nc[nH]c23)cc1 | 7740
* CN(C)C(N)=NCCC[C@H](N)C(=O)O | 10200
* Nc1ncnc2c1ncn2[C@@H]1O[C@H](COP(=O)(O)OP(=O)(O)OP(=O)(O)OP(=O)(O)OC[C@@H]2O[C@H](n3cnc4c(N)ncnc43)C(O)[C@@H]2O)[C@H](O)C1O (some centres not stated) | 9730
* CC[C@@]1([C@@H]2O[C@@H]([C@H]3O[C@@](O)(CO)[C@H](C)C[C@@H]3C)C[C@@H]2C)CC[C@H]([C@]2(C)CC[C@]3(C[C@H](O)[C@@H](C)[C@@H]([C@@H](C)[C@@H](OC)[C@H](C)C(=O)O)O3)O2)O1 (stereo in doubt) | 3090
* Oc1ccc(C2CNCc3sccc32)cc1O (configuration not stated) | 10600
* Cc1ccc2c(c1)N(Cc1nc(C(C)(C)C)no1)C(=O)CO2 | 5280
* N#CSc1cc(SC#N)c(N)nc1N | 1820
* COC(=O)[C@@H](N)CSC/C=C(\C)CC/C=C(\C)CCC=C(C)C | 6540
* C=CC[C@H](N)C(=O)O | 10400
* CC[C@H]1OC(=O)[C@H](C)[C@@H](O[C@H]2C[C@@](C)(OC)[C@@H](O)[C@H](C)O2)[C@H](C)[C@@H](O[C@@H]2O[C@H](C)C[C@H](NC)[C@H]2O)[C@](C)(O)C[C@@H](C)CN(C)[C@H](C)[C@@H](O)[C@]1(C)O | 10400
* O=C(O)CC1CC(c2ccccc2)=NO1 (configuration not stated) | 9040
* CCC1OC(=O)C(C)C(OC2C[C@@](C)(OC)C(O)C(C)O2)C(C)C(OC2OC(C)CC(N(C)C)C2O)[C@@](C)(O)CC(C)[C@@H]2NC(COCCOC)OC(C2C)[C@]1(C)O (some centres not stated) | 9580
* O=C(O)CCCCCNC(=O)NC1CCCCC1 | 10400
* CCCCC/C=C\C/C=C\C/C=C\CC1OC1CCCC(=O)O (configuration not stated) | 6280
* OCC1OC(n2cnc3c(NC4CCCC4)nc(Cl)nc32)C(O)C1O (configuration not stated) | 10800
* COc1cccc(C(=O)NCCN2CCN(c3ccc(Cl)cc3)CC2)c1 | 9720
* Cn1c(=O)c2[nH]c(-c3ccc(S(=O)(=O)O)cc3)nc2n(C)c1=O | 10000
* CN1CCc2nc(C(=O)NC3CC(C(=O)N(C)C)CCC3NC(=O)C(=O)Nc3ccc(Cl)cn3)sc2C1 (configuration not stated) | 9180
* CCc1ccc(C=C2SC(=S)NC2=O)cc1 | 8500
* Cc1nsc(NC(=O)N2CCCC(C)(O)C2)n1 (configuration not stated) | 10200

----------
# test-protocol: drug combination growth inhibition, ovarian cancer – cell-based, oncology-focused library, rucaparib conditional, profiling panel (AID 1508598)
# condition-details: patient-derived ovarian cancer cells, CellTiter-Glo viability, 144 h; at 0.000305 µM; OCI-C5x cells; with rucaparib 10 µM; stronger effect = lower value; 100% = cells with rucaparib alone
viability reference
measured-property: viability (%)

• C[C@]12CC[C@H]3c4ccc(O)cc4CC[C@H]3[C@@H]1CC[C@H]2O = 95.7
• OCCn1cc(-c2ccc3c(c2)CCC3=NO)c(-c2ccncc2)n1 = 116
• CCC1=CC2CN(C1)Cc1c([nH]c3ccccc13)[C@@](C(=O)OC)(c1cc3c(cc1OC)N(C)[C@H]1[C@@](O)(C(=O)OC)[C@H](OC(C)=O)[C@]4(CC)C=CCN5CC[C@@]31[C@H]54)C2 (stereo partly specified) = 110
• C[C@H]1C[C@H]2[C@@H]3CCC4=CC(=O)C=C[C@]4(C)[C@@H]3C(=O)C[C@]2(C)[C@]1(O)C(=O)CO = 114
• COC1=C2C[C@H](C)C[C@@H](OC)[C@H](O)[C@H](C)/C=C(\C)[C@H](OC(N)=O)[C@@H](OC)/C=C/C=C(\C)C(=O)NC(=CC1=O)C2=O = 97.2
• Cc1[nH]c(C=C2C(=O)Nc3ccc(S(=O)(=O)N(C)c4cccc(Cl)c4)cc32)c(C)c1C(=O)N1CCN(C)CC1 = 109

----------
Quick reference for inhibition among some molecules
# test-protocol: growth inhibition, MDA-MB-436, cell-based, BGB or cisplatin combos, synergistic combos for chromothripsis tumors (AID 1671458);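 further: cells exposed for 96 hours; 0% = vehicle DMSO and 100% = killing by high DMSO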
# condition-details: MDA-MB-436 breast carcinoma growth inhibition, drug combinations; measured here: BGB combination; at 5 µM; stronger effect = higher value
Non-standard residues stand in square brackets, D forms with d. Residues, ends and D or L forms follow the SMILES beside them. Dolaproine = CO[C@@H]([C@@H]1CCCN1)[C@@H](C)C(=O)O; Dil = CC[C@H](C)[C@H](NC)[C@@H](CC(=O)O)OC; NMeV = CN[C@H](C(=O)O)C(C)C
measured-property: inhibition (%)

• CC(Oc1cc(-c2cnn(C3CCNCC3)c2)cnc1N)c1c(Cl)ccc(F)c1Cl (stereo not drawn) = 18.2
• Cc1cc(C#N)cc(C)c1Oc1nc(Nc2ccc(C#N)cc2)nc(N)c1Br = -28.6
• NC(=O)c1cccc2cn(-c3ccc(C4CCCNC4)cc3)nc12 (stereo not drawn) = -6.33
• N#Cc1ccc(OC2CCC(NC(=O)CCSc3nc4ccccc4c(=O)[nH]3)CC2)cc1 (stereo not drawn) = -9.87
• C=C1C(=O)O[C@@H]2C=C(C)CCC=C(C)CC[C@@H]12 = 39.9
• Cn1cc(-c2cnn3c(N)c(Br)c([C@H]4CCCNC4)nc23)cn1 = 53.4
• O=c1cc(-c2ccc(O)cc2)[nH]c(=S)[nH]1 = -8.05
• Cc1cc(C=CC#N)cc(C)c1Nc1ccnc(Nc2ccc(C#N)cc2)n1 = -3.72
• Nc1ccn(C2CCC(CO)O2)c(=O)n1 (stereo not drawn) = -21.7
• Nc1nc(NC2CC2)cc(-c2cccc(Cl)c2Cl)n1 = 10.3
• Cc1cn(C2C=CC(CO)O2)c(=O)[nH]c1=O (stereo not drawn) = -23.5
• Cn1cnc2[nH]c(=O)[nH]c(=O)c21 = -1.97
• NC(=S)NN=Cc1ncccc1N = 39.5
• Nc1nc(F)nc2c1ncn2C1OC(CO)C(O)C1O (stereo not drawn) = 12.4
• CCC(C)C(=O)OC1CC(C)C=C2C=CC(C)C(CCC3CC(O)CC(=O)O3)C21 (stereo not drawn) = -6.45
• O=C(CCSc1nc2ccccc2c(=O)[nH]1)NC1CCC(c2nnc(-c3ccccc3)o2)CC1 (stereo not drawn) = -13.2
• COc1cccc2c1C(=O)c1c(O)c3c(c(O)c1C2=O)CC(O)(C(C)=O)CC3OC1CC(N)C(O)C(C)O1 (stereo not drawn) = 89.2
• NC(=O)c1cccc2[nH]c(-c3ccc(C4CCCN4)cc3F)nc12 (stereo not drawn) = 34.2
• COc1ccccc1S(=O)(=O)Nc1ccc2c(c1)CN(C)C(=O)N2 = -5.52
• O=c1[nH]cnc2c1ncn2C1CCC(CO)O1 (stereo not drawn) = -24.3
• Cc1cn(C2CC(O)C(COP(=O)(O)OP(=O)(O)OP(=O)(O)O)O2)c(=O)[nH]c1=O (stereo not drawn) = 2.66
• Nc1ncn(C2OC(CO)C(O)C2O)c(=O)n1 (stereo not drawn) = 23.9
• NC(=O)c1ncn(C2OC(CO)C(O)C2O)c1O (stereo not drawn) = -1.99
• CC(C)C(=O)SCCCCCCC(=O)Nc1nc(-c2ccccc2)cs1 = 10.2
• C[n+]1ccc(-c2c3nc(c(-c4cc[n+](C)cc4)c4ccc([nH]4)c(-c4cc[n+](C)cc4)c4nc(c(-c5cc[n+](C)cc5)c5ccc2[nH]5)C=C4)C=C3)cc1 = -18
• CC(=O)C1(O)Cc2c(O)c3c(c(O)c2C(OC2CC(N)C(O)C(C)O2)C1)C(=O)c1ccccc1C3=O (stereo not drawn) = 72.7
• CC[C@H](C)[C@@H]([C@@H](CC(=O)N1CCC[C@H]1[C@H](OC)[C@@H](C)C(=O)N[C@@H](Cc1ccccc1)C(=O)O)OC)N(C)C(=O)[C@@H](NC(=O)[C@@H](NC)C(C)C)C(C)C (H-[NMeV]V[Dil][Dolaproine]F-OH) = 58
• COc1cccc2c1C(=O)c1c(O)c3c(c(O)c1C2=O)CC(O)(C(=O)CO)CC3OC1CC(N)C(OC2CCCCO2)C(C)O1 (stereo not drawn) = 64.7
• CC(C)c1ccc(-c2cc(=O)c3ccccc3o2)cc1 = 27.2
• Cc1c(Br)cc(NCC(=O)N/N=C/c2cc([N+](=O)[O-])ccc2O)cc1Br = 25.8
• C=C(C)C1CCC2(C(=O)O)CCC3(C)C(CCC4C5(C)CCC(O)C(C)(C)C5CCC43C)C12 (stereo not drawn) = -5.74
• O=C1N=c2ccccc2=C1c1c(O)[nH]c2ccccc12 = 38.1
• CC1OC(n2cc(F)c(=O)[nH]c2=O)C(O)C1O (stereo not drawn) = -19.2
